The entries below come with measured binding signal values attached.
- assayed target: GST-Rok-C97-191 (Bacillus subtilis subsp. subtilis str. …, UniProt O34857 97-191)
- Sequence: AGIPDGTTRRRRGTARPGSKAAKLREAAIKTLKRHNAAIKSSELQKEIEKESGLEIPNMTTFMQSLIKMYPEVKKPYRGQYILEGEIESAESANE
- protocol text: protein binding microarray; high values mean tight binding
- experimental setup: protein: recombinant; tags: GST (pTH5325, pDEST15-Magic modified); dsDNA, one strand shown
Over roughly 33,000 sequences, “e-score” has its median near -0.038; the highest 2% begin near 0.33. The list comes from a sample in which the highest values are over-represented; it also holds close analogues and randomly drawn sequences.
Please reply with the bare figure in E-score and do not write the unit itself.

Examples with answers:
Q. Which binding signal reading was recorded for the sequence `AGATATCA` ?
A. 0.0773

Q. Which binding signal reading was recorded for the sequence `ACTATCTA` ?
A. 0.364

Q. Which binding signal reading was recorded for the sequence `AAGTTGCA` ?
A. 0.0502

Now, please, on to the next sequence.
Q. Which binding signal reading was recorded for the sequence `ACTATCTC` ?
A. 0.263

---

- assayed target: GST-Rok-C97-191 (Bacillus subtilis subsp. subtilis str. …, UniProt O34857 97-191)
- Sequence: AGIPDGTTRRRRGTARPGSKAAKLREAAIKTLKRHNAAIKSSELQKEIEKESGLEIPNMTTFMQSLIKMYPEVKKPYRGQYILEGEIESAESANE
- protocol text: protein binding microarray; high values mean tight binding
- experimental setup: protein: recombinant; tags: GST (pTH5325, pDEST15-Magic modified); dsDNA, one strand shown
The full ranking holds about 33,000 sequences; the median of “e-score” is about -0.038, and the highest 2% start at about 0.33. Only a selection was taken, and the highest values are over-represented in it overall.
observable: binding signal (E-score)
Please reply with the bare figure in E-score and do not write the unit itself.

Q. Which binding signal reading was recorded for the sequence `AATATAAC` ?
A. 0.205

Q. Which binding signal reading was recorded for the sequence `ATAATGTA` ?
A. 0.405

Q. Which binding signal reading was recorded for the sequence `ATAATGTG` ?
A. 0.167

Q. Which binding signal reading was recorded for the sequence `ACTATCGA` ?
A. 0.348

Q. Which binding signal reading was recorded for the sequence `AGAGTAGG` ?
A. -0.15

Q. Which binding signal reading was recorded for the sequence `TATATAAA` ?
A. 0.394

Q. Which binding signal reading was recorded for the sequence `CGCCGTTC` ?
A. -0.164

Q. Which binding signal reading was recorded for the sequence `ATAGTTGC` ?
A. 0.306

---

- assayed target: GST-Rok-C97-191 (Bacillus subtilis subsp. subtilis str. …, UniProt O34857 97-191)
- Sequence: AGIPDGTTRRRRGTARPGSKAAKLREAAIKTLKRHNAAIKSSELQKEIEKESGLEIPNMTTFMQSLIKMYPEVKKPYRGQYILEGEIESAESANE
- protocol text: protein binding microarray; Rok is a gene silencer of Bacillus subtilis; high values mean tight binding
- experimental setup: protein: recombinant; tags: GST (pTH5325, pDEST15-Magic modified); dsDNA, one strand shown
The full ranking holds about 33,000 sequences; the median of “e-score” is about -0.038, and the highest 2% start at about 0.33. This excerpt belongs to a sample that is enriched for the highest values.
Reported binding signal maps to class as: lowest: < 0.01 E-score; middle: ≥ 0.01 E-score and < 0.3 E-score; highest: ≥ 0.3 E-score

Q. For `CGCTTTGA` , which binding signal bin applies?
A. lowest

Q. For `ACTACTAC` , which binding signal bin applies?
A. highest

Q. For `AAAATATA` , which binding signal bin applies?
A. highest

Q. For `AAAATTAT` , which binding signal bin applies?
A. middle

Q. For `TCTAATAA` , which binding signal bin applies?
A. middle

Q. For `ATTAATAC` , which binding signal bin applies?
A. highest

Q. For `CGTCAACC` , which binding signal bin applies?
A. lowest

Q. For `AGCTAGGA` , which binding signal bin applies?
A. lowest

Q. For `ACTACTCG` , which binding signal bin applies?
A. middle

Q. For `ACCTGGCA` , which binding signal bin applies?
A. lowest

Further cases:
Q. For `CCCGGTAG` , which binding signal bin applies?
A. lowest

Q. For `CAACAAGA` , which binding signal bin applies?
A. lowest

Q. For `AATAATAT` , which binding signal bin applies?
A. highest

Q. For `ATTAATAA` , which binding signal bin applies?
A. middle

Q. For `CCGACTAG` , which binding signal bin applies?
A. middle

Q. For `CAAATATG` , which binding signal bin applies?
A. middle

Q. For `AGTCAAGG` , which binding signal bin applies?
A. lowest

Q. For `CATAGTGC` , which binding signal bin applies?
A. lowest

Q. For `AATAATAA` , which binding signal bin applies?
A. highest
